Measurement description: Acute toxicity per os, single dose, LD50
Assay conditions: mouse, in vivo, po
Recorded metric: LD50

1) Cc1ncc(COC(=O)C(C)c2ccc(CC(C)C)cc2)c2c1OC(C)(C)OC2 (centres unmarked) : > 2200 mg/kg
2) Cc1ncc(COC(=O)C(C)c2ccc(CC(C)C)cc2)c(CO)c1O (centres unmarked) : > 2000 mg/kg

* * *

Measurement description: in vivo
Assay conditions: rat, po
Recorded metric: TD50 at 7 h

1. CC(C)Cc1ccc(C(C)C(=O)O)cc1 (stereo not drawn) [2-(4-isobutylphenyl)-propionic acid, reference compound] : 38 mg/kg
2. Cc1ncc(COC(=O)C(C)c2ccc(CC(C)C)cc2)c(CO)c1O (stereo not drawn) : 365 mg/kg
3. Cc1ncc(COC(=O)C(C)c2ccc(CC(C)C)cc2)c2c1OC(C)(C)OC2 (stereo not drawn) : > 400 mg/kg
